All figures here come from paper PMC8308021.

# key: entry, value: melting point

- COMPOUND: "CC1(C)c2[nH]c3ccc(Cl)cc3c2C[C@@]2(C)C1CC[C@]1(C)C2C(=O)C=C2C3C[C@@](C)(C(=O)O)CC[C@]3(C)CC[C@]21C (stereo partly drawn)"
  melting point: "256 to 258 °C"
- COMPOUND: "CC1(C)c2c(cnn2-c2ccc(Cl)cc2)C[C@@]2(C)C1CC[C@]1(C)C2C(=O)C=C2C3C[C@@](C)(C(=O)O)CC[C@]3(C)CC[C@]21C (stereo partly drawn)"
  melting point: "263 to 266 °C"

# melting point of CC1(C)c2c(cnn2-c2ccccc2)C[C@@]2(C)C1CC[C@]1(C)C2C(=O)C=C2C3C[C@@](C)(C(=O)O)CC[C@]3(C)CC[C@]21C (stereo partly drawn) = 243 to 245 °C

# melting point of COc1ccc2[nH]c3c(c2c1)C[C@@]1(C)C(CC[C@]2(C)C1C(=O)C=C1C4C[C@@](C)(C(=O)O)CC[C@]4(C)CC[C@]12C)C3(C)C (stereo partly drawn) = 243 to 244 °C

# melting point of CC1(C(=O)O)CCC2(C)CCC3(C)C(=CC(=O)C4C5(C)Cc6cnn(-c7ccc(C(F)(F)F)cc7)c6C(C)(C)C5CCC43C)C2C1 (stereo not drawn) = 270 to 271 °C

# melting point of Cc1ccc2[nH]c3c(c2c1)C[C@@]1(C)C(CC[C@]2(C)C1C(=O)C=C1C4C[C@@](C)(C(=O)O)CC[C@]4(C)CC[C@]12C)C3(C)C (stereo partly drawn) = 268 to 271 °C
